Measured values drawn from paper PMC5540273 for this set.

tested on: DDR1; conditions: concentration: 1 μM, replicates: in singlicate; n = 1
Threshold check on %Inh: strictly below 30% is y; on or above 30% is n.

[[record]]
compound = "CNc1nc(-c2ccc3c(N)n[nH]c3c2)cc(N2C[C@@H](C(=O)NC3CCCCC3)OC[C@H]2C)n1"
group = "y"

[[record]]
compound = "COc1ccc(-c2coc3ccc(-c4nnc(C)o4)cc23)cc1"
group = "y"

[[record]]
compound = "COc1cccc(NC(=O)Nc2ccc(C)c(-c3ccc(C(=O)Nc4ccncc4)cc3)c2)c1"
group = "n"

[[record]]
compound = "CNC(=O)c1ccc(C)c(-n2c(C)cc(OCc3ccc(F)cc3F)c(Br)c2=O)c1"
group = "y"

[[record]]
compound = "O=C1NC(=O)C(c2ccc(Cl)cc2)=C1Nc1ccc(O)cc1"
group = "y"

[[record]]
compound = "COc1ccc(Nc2nccc(N3CCC(NC(=O)C(C)c4ccc(Cl)cc4)C3)n2)cc1 (stereo not drawn)"
group = "y"


# TODO verify %Inh < 30% strictly for this compound: Fc1ccc(-c2nc[nH]c2-c2ccncc2)cc1
y

hey, is %Inh for COc1ccc(CSc2nnc(-c3ccc4c(c3)CCO4)o2)cc1 lower than 30% or not?
y

# check: %Inh < 30% for COc1ccc2cc(-c3nc(-c4ccccc4C(C)C)[nH]c3-c3ccncc3)ccc2c1
n

====

Listing: %Inh of selected molecules
tested on: MST2; construct: gene STK3; conditions: concentration: 1 μM, replicates: in singlicate; n = 1
Reply numerically in %, unit not repeated.

[[record]]
molecule = "COc1ccc(Nc2nccc(N3CCC(NC(=O)C(C)c4ccc(Cl)cc4)C3)n2)cc1 (centres unmarked)"
obs_value = 26


Form field: %Inh recorded for CC(=O)c1c(C)c2cnc(Nc3ccc(N4CCNCC4)cn3)nc2n(C2CCCC2)c1=O with MST2 (enter value)
0

Can you look up %Inh on MST2 for COc1ccc2cc(-c3nc(-c4ccccc4C(C)C)[nH]c3-c3ccncc3)ccc2c1 ?
58

Form field: %Inh recorded for Cc1c(Cn2c(C)c(C)n3c(=O)cc(N4CCOCC4)nc23)cccc1C(F)(F)F with MST2 (enter value)
0

Form field: %Inh recorded for Cc1ccc(NC(=O)Nc2ccc(Cl)cc2)cc1-c1ccc(C(=O)Nc2ccncc2)cc1 with MST2 (enter value)
0

For MST2, provide %Inh of NS(=O)(=O)c1cccc(N/C=C2\C(=O)Nc3ccc(S(=O)(=O)Cc4c(Cl)cccc4Cl)cc32)c1 please.
1

State its %Inh on MST2: COc1ccc(Nc2nccc(-c3ccc(NC(=O)c4cc5cc(F)ccc5[nH]4)cc3)n2)cc1
0

Short answer please: %Inh, MST2, entry O=C1NC(=O)C(c2ccc(Cl)cc2)=C1Nc1ccc(O)cc1
0

====

Reported %Inh values for the following compounds.
test system: PRKCE; conditions: concentration: 1 μM, replicates: in singlicate; n = 1
Report the value in % with no unit label.

[[record]]
compound = "Cc1nccc(-c2c(-c3ccc(F)cc3)ncn2CCCN2CCOCC2)n1.Cl"
obs_value = 11


Return reported %Inh; argument: COc1ccc(Nc2nccc(N3CCC(NC(=O)C(C)c4ccc(Cl)cc4)C3)n2)cc1 (centres unmarked)
5

// lookup %Inh for Cc1cnc(N)c(/C=C/c2cncc(C(=O)NCCc3ccc(Cl)cc3Cl)c2)c1.Cl
21

Fill in: %Inh of CSc1ccc(-c2nc3n(c2-c2ccncc2)CCC3)cc1 is ___
23

Reported %Inh, compound Cc1c(Cn2c3ccccc3n3c(=O)cc(N4CCOCC4)nc23)cccc1C(F)(F)F : ____
0

====

tested on: GSK3B; conditions: concentration: 1 μM, replicates: in singlicate; n = 1
Each entry below carries its reported %Inh.
Hi, when you answer, please include the unit after the number. Thanks!

[[record]]
structure = "Fc1ccc(-c2nc3n(c2-c2ccncc2)CCS3)cc1"
obs_value = "19%"

[[record]]
structure = "CN1c2ccc(-c3ccc(C(N)=O)cc3)cc2-c2[nH]ncc2S1(=O)=O"
obs_value = "13%"

[[record]]
structure = "Cc1ccc(NC(=O)Nc2ccccc2)cc1-c1ccc(C(=O)Nc2ccncc2)cc1"
obs_value = "11%"

[[record]]
structure = "Cn1cnc2c(N)ncnc21"
obs_value = "0%"

[[record]]
structure = "Fc1ccc(-c2nc[nH]c2-c2ccncc2)cc1"
obs_value = "13%"

[[record]]
structure = "Cc1ccc(NC(=O)Nc2ccc(Cl)cc2)cc1-c1ccc(C(=O)Nc2ccncc2)cc1"
obs_value = "7%"

[[record]]
structure = "Fc1ccc(-c2nn3cccc(F)c3c2-c2ccncc2)cc1"
obs_value = "11%"

[[record]]
structure = "COc1nccc(-c2c(-c3ccc(F)cc3)ncn2CCCN2CCOCC2)n1"
obs_value = "10%"

[[record]]
structure = "Cc1ccc(-c2nc(Nc3ccncc3)c3ccccc3n2)s1"
obs_value = "28%"


Alright, here's another compound for you.
What measured %Inh is associated with COc1cc2ncnc(Nc3cccc(Br)c3)c2cc1OC.Cl on GSK3B?
0%

====

tested on: SGK; details: concentration: 1 μM, replicates: in singlicate; n = 1
MEASURED_METRIC: %Inh (%)
Give the value in % but do not write % after it.

[[record]]
compound = "COc1ccc(Nc2nccc(N3CCC(NC(=O)c4cc5ccccc5s4)C3)n2)cc1 (stereo not drawn)"
assayed_target = "SGK"
obs_value = 0

[[record]]
compound = "Nc1nccc(-c2c(-c3ccc(F)cc3)ncn2C2CCN(Cc3ccccc3)CC2)n1"
assayed_target = "SGK"
obs_value = 2

[[record]]
compound = "CNCc1ccc2nc(NC(=O)c3ccc(C(C)(C)C)cc3)cn2c1"
assayed_target = "SGK"
obs_value = 2

[[record]]
compound = "COc1cccc(C2=C(Nc3cc(Cl)c(O)c(Cl)c3)C(=O)NC2=O)c1"
assayed_target = "SGK"
obs_value = 0

[[record]]
compound = "Cc1ccc(NC(=O)Nc2ccccc2F)cc1-c1ccc(C(=O)Nc2ccncc2)cc1"
assayed_target = "SGK"
obs_value = 0

[[record]]
compound = "COc1ccc(Nc2nccc(N3CCC(NC(=O)C(C)c4ccc(Cl)cc4)C3)n2)cc1 (stereo not drawn)"
assayed_target = "SGK"
obs_value = 10

[[record]]
compound = "COc1cccc(CNC(=O)NC2CCN(c3ccnc(Nc4ccc(F)cc4)n3)C2)c1 (stereo not drawn)"
assayed_target = "SGK"
obs_value = 0

[[record]]
compound = "COc1ccc(CSc2nnc(-c3ccc4ncsc4c3)o2)cc1C(F)(F)F"
assayed_target = "SGK"
obs_value = 2

[[record]]
compound = "Nc1cccc(-c2ccc3c(N)n[nH]c3c2)n1"
assayed_target = "SGK"
obs_value = 2

[[record]]
compound = "Cc1cnc(N)c(/C=C/c2cncc(C(=O)NCCc3ccc(Cl)cc3Cl)c2)c1.Cl"
assayed_target = "SGK"
obs_value = 0


Given the entry CC(C)c1cc(-c2ccc3c(N)n[nH]c3c2)nc(N)n1 , report its measured %Inh.
0

What does the data say about its %Inh? Entry: COc1ccc(CSc2nnc(-c3ccc4nccn4c3)o2)cc1C(F)(F)F
8

Which %Inh is reported for this compound? CSc1ccc(-c2nc3n(c2-c2ccncc2)CCC3)cc1
0

====

tested on: DRAK2; construct: gene STK17B;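 further: kd values determined as follow-up on hits from a single-replicate KINOMEscan panel screen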
MEASURED_METRIC: pKd
Give only the number. pKd is defined as minus log10 of concentration in molar units.

I have this molecule here, CNc1nc(-c2ccc3c(N)n[nH]c3c2)cc(N2C[C@@H](C(=O)Nc3ccccc3)CC[C@H]2C)n1 [GSK2298859] , and I need its recorded pKd.
7.08

====

tested on: PDPK1; settings: concentration: 1 μM, replicates: in singlicate; n = 1
MEASURED_METRIC: %Inh (%)
Response body: numeric value in %, unit text excluded.

# example entries with known answers
[[record]]
molecule = "COc1ccc(Nc2nccc(NCCNC(=O)Nc3cc(C)ccc3C)n2)cc1 [GSK1379899]"
measured_metric = "%Inh"
obs_value = 0

[[record]]
molecule = "CCn1c(-c2c(N)noc2C)nc2cnccc21 [SB-737856]"
measured_metric = "%Inh"
obs_value = 2

[[record]]
molecule = "CC(=O)c1cccc(NC(=O)NC2CCN(c3ccnc(Nc4ccc(F)cc4)n3)C2)c1 (stereo not drawn) [GSK1379710]"
measured_metric = "%Inh"
obs_value = 0

[[record]]
molecule = "COc1ccc(Nc2nccc(N3CCC(NC(=O)C(C)c4ccc(Cl)cc4)C3)n2)cc1 (stereo not drawn) [GSK1379735]"
measured_metric = "%Inh"
obs_value = 4

[[record]]
molecule = "COc1nccc(-c2c(-c3ccc(F)cc3)ncn2CCCN2CCOCC2)n1 [SB-282852]"
measured_metric = "%Inh"
obs_value = 0


Suppose we examine the molecule COc1ccc(CSc2nnc(-c3ccc4c(c3)CCO4)o2)cc1 ; what %Inh value has been reported?
0

Bench note: what %Inh did O=C(Nc1n[nH]c2nc(-c3ccco3)c(Br)cc12)C1CCN(Cc2ccccc2)C1.O=C(O)[C@H](O)[C@@H](O)C(=O)O (stereo not drawn) [SB-742034] show?
18

// query %Inh value for entry COc1ccc(Nc2nccc(-c3ccc(NC(=O)c4cc5cc(F)ccc5[nH]4)cc3)n2)cc1 [GSK1229496]
0

Entry under review: NS(=O)(=O)c1cccc(N/C=C2\C(=O)Nc3ccc(S(=O)(=O)Cc4c(Cl)cccc4Cl)cc32)c1 [GSK398099] . Reported %Inh?
0

// %Inh lookup, key: COc1ccc(CSc2nnc(-c3ccc4nccn4c3)o2)cc1C(F)(F)F
0

Requested read-out: %Inh. Entry: CCc1ccc(-c2ccc3c(c2)-c2n[nH]cc2S(=O)(=O)N3C)cc1
4

What does the record list as %Inh for CC(C)c1cc(-c2ccc3c(N)n[nH]c3c2)nc(N)n1 [GSK2250882] ?
74

Give its %Inh value. Item: O=C(Nc1n[nH]c2nc(-c3cccs3)c(Br)cc12)C1CC1 [SB-735297]
0

Reported %Inh, molecule O=c1cc(N2CCOCC2)nc2n(Cc3cccc(Cl)c3Cl)c3ccccc3n12 [GSK2299009] : ____
0

Return reported %Inh; argument: COc1cccc(C2=C(Nc3cc(Cl)c(O)c(Cl)c3)C(=O)NC2=O)c1 [SB-390767]
0

Bench note: what %Inh did CC(=O)c1c(C)c2cnc(Nc3ccn(C)n3)nc2n(C2CCCC2)c1=O show?
0

Would you kindly share the measured %Inh for Cc1nccc(-c2c(-c3ccc(F)cc3)ncn2CCCN2CCOCC2)n1.Cl [SB-282975] ?
29

Look up %Inh for this molecule: Cn1cncc1C(=O)NC1CCN(c2ccnc(Nc3ccc(F)cc3)n2)C1 (stereo not drawn) [GSK1379717]
0

# get_value(readout='%Inh', item= Cc1ccc(-c2nc(Nc3ccncc3)c3ccccc3n2)s1 [GSK189015] )
26

Look up %Inh: CC(C)c1ccc(O)cc1Nc1ccnc2ccc(C(F)(F)F)cc12 [GW482059]
18

Any idea what %Inh was measured for CS(=O)(=O)Cc1ccc(Nc2nccc(-c3c(-c4cccc(NC(=O)C5CCCCC5)c4)nn4ncccc34)n2)cc1 [GSK350559] ?
1

Give its %Inh value. Item: CCn1c(-c2ccccc2)nc2cnccc21 [SB-733416]
0
